meta.source: patent EP4768484A1

Biological target: Ba/F3 BCR-ABL1 T315I (Homo sapiens, UniProt P00519+P11274, T315I)
Construct: BCR (N-terminal fusion partner of the oncoprotein)
Test: Cell growth inhibitory activity assay (CellTiter-Glo), Ba/F3 BCR-ABL1 T315I cells
Conditions: 72 h, CTG cell viability

Molecule: C[C@@H]1COCc2nc3cc(C(=O)Nc4ccc(OC(F)(F)Cl)cc4)cc(-c4cnc5c(c4)-c4nn(-c6nccc(-c7ccc(C#N)nc7)n6)cc4C5)c3n21
IC50: ≤ 5 nM
//
Molecule: CC(=O)NC1CCC2c3cc(C(=O)Nc4ccc(OC(F)(F)Cl)cc4)cc(-c4cnccn4)c3N(C(C)C)C12 (racemic)
IC50: 50 to 1000 nM
//
Molecule: C[C@@H]1COCc2nc3cc(C(=O)Nc4ccc(OC(F)(F)Cl)cc4)cc(-c4cnc5c(c4)-c4nn(-c6nccc(-c7ccn(C)n7)n6)cc4C5)c3n21
IC50: ≤ 5 nM
//
Molecule: N#Cc1cnc(-n2cc3c(n2)-c2cc(-c4cc(C(=O)Nc5ccc(OC(F)(F)Cl)cc5)cnc4N4CC[C@@H](F)C4)cnc2C3)nc1
IC50: ≤ 5 nM
//
Molecule: CC(=O)N[C@H]1CCC2c3cc(C(=O)Nc4ccc(OC(F)(F)Cl)cc4)cc(-c4cnccn4)c3N(C(C)C)C21 (stereo partly shown)
IC50: > 1000 nM
//
Molecule: O=C(Nc1ccc(OC(F)(F)Cl)cc1)c1cc2c(c(-c3cnc4c(c3)-c3nn(-c5ncccn5)cc3C4)c1)C1(CCCCC1)C(=O)N2
IC50: ≤ 5 nM
//
Molecule: C[C@@H]1COCc2nc3cc(C(=O)Nc4ccc(OC(F)(F)Cl)cc4)cc(-c4cnc5c(c4)-c4nn(-c6nccc(N7CCOCC7)n6)cc4C5)c3n21
IC50: ≤ 5 nM
